- TARGET OR TEST SYSTEM: T1, human vascular endothelial growth factor receptor-2 Fc chimera (KDR-Fc) (human, UniProt P35968 20-764)
- T1 construct: range 1-764; purchased from R&D Systems; also called hKDR; human VEGF-R2-Fc; not shown: human IgG1 Fc
- T1 sequence (P35968 20-764 limits assumed, change not shown, form in doubt): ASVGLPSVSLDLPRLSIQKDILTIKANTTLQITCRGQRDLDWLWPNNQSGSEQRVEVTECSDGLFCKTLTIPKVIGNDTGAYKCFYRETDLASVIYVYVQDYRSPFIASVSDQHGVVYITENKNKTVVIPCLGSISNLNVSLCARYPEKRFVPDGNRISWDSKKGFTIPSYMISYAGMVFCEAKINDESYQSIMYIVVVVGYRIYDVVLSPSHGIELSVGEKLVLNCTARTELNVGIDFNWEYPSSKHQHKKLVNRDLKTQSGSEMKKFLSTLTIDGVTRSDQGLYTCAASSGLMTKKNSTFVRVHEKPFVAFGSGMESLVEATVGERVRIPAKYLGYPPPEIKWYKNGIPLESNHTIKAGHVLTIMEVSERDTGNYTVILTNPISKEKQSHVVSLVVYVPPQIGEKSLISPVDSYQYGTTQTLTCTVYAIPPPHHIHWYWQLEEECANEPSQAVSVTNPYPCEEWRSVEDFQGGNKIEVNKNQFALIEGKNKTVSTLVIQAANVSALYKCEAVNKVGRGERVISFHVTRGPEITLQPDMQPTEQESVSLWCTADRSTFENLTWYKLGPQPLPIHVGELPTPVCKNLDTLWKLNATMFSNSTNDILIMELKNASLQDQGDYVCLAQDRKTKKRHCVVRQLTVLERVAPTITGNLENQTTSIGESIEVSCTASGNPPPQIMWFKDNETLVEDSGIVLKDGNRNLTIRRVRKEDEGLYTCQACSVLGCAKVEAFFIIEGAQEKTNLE
- PROCEDURE DETAILS: radioactive equilibrium binding, 1 nM KDR-Fc
ENDPOINT LABEL: Binding to 1 nM KDR, % (%)

4′B6 PR4 (designed binder, tag left out) EVVAATPTSLLISWRHPHFPTRYYRITYGETGGNSPVQEFTVPLQPPTATISGLKPGVDYTITGYAVTLAQNDHELITPISINYRT ... 11

[A] 3′D12 PR4 (designed binder, tag left out) EVVAATPTSLLISWRHPHFPTRYYRITYGETGGNSPVQEFTVPLQPPTATISGLKPGVDYTITGYAVTGEQNDYELLVPISINYRT
[B] 3F11 PR3 (designed binder, tag left out) EVVAATPTSLLISWRHPHFPTRYYRITYGETGGNSPVQEFTVPLQPPTATISGLKPGVDYTITGYAVTVGLTDHVLLTPISINYRT
Problem: Which entry has a larger number for Binding to 1 nM KDR, %, A or B ? Selection: enter the item's label.
Solution: B
